Numbers sourced from paper PMC9482650.

Molecular target: T1, MPP6, Q9NZW5
T1 sequence (Q9NZW5 125-219, limits assumed, looked up): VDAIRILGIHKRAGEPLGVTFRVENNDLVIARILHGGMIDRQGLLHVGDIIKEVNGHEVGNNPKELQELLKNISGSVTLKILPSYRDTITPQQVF
Experiment: holdup assay
Set-up: key: below the threshold = too weak to quantify, mostly under pKd 3.1 to 4
Settings: plain residues with an end cap or a label only (N-terminal biotin on a linker: ado-ado)
observed property: pKd

{"binder": "ETQVTAETVI [TMEM225B, P0DP42]", "observed property": "pKd", "experimental value": "below the threshold"}
{"binder": "MLSKQSESAI [FLVCR1, Q9Y5Y0]", "observed property": "pKd", "experimental value": "below the threshold"}
{"binder": "TSQESEDTYL [TBC1D10A, Q9BXI6]", "observed property": "pKd", "experimental value": "below the threshold"}
{"binder": "RKPKPSSSCC [RAB9A, P51151]", "observed property": "pKd", "experimental value": 3.51}
{"binder": "HLRARKSEWV [GJD4, Q96KN9]", "observed property": "pKd", "experimental value": "below the threshold"}
